# Test system: HCC 2998
# Assay: Growth inhibition of human HCC2998 cells incubated for 48 hrs by sulforhodamine B assay
# Format: functional
# Run conditions: HCC 2998, 48 h, read-out: LC50 (the source's name)
Attribute measured: CC50 (µM)

Compound	Tested target	Value measured
C=C1CC[C@@H]2[C@](C)(COC(C)=O)[C@H](OC(C)=O)CC[C@@]2(C)[C@H]1CC(Nc1ccc(S(=O)(=O)Nc2cc(C)on2)cc1)C1=CCOC1=O (stereo not given in full)	HCC 2998	7.64
C=C1CC[C@@H]2[C@](C)(COC(C)=O)[C@H](OC(C)=O)CC[C@@]2(C)[C@H]1CC(Nc1ccc(S(=O)(=O)Nc2ccc(Cl)nn2)cc1)C1=CCOC1=O (stereo not given in full)	HCC 2998	8.08
C=C1CC[C@@H]2[C@](C)(COC(C)=O)[C@H](OC(C)=O)CC[C@@]2(C)[C@H]1CC(Nc1ccc(S(=O)(=O)Nc2ncccn2)cc1)C1=CCOC1=O (stereo not given in full)	HCC 2998	6.9
C=C1CC[C@@H]2[C@](C)(COC(C)=O)[C@H](OC(C)=O)CC[C@@]2(C)[C@H]1CC(Nc1ccc(S(=O)(=O)Nc2nccc(C)n2)cc1)C1=CCOC1=O (stereo not given in full)	HCC 2998	48.1
C=C1CC[C@@H]2[C@](C)(COC(C)=O)[C@H](OC(C)=O)CC[C@@]2(C)[C@H]1CC(Nc1ccc(S(=O)(=O)Nc2nccs2)cc1)C1=CCOC1=O (stereo not given in full)	HCC 2998	50.3
